Test system: HIV-1LAl
Method: Anti-HIV (in PBM cells) assay, reverse transcriptase readout
Type: cell-based
Test context: Table 1, read-out: Anti-HIV-1 activity in different cells (EC90, μM) PBM
Protocol: Anti-HIV-1 activity of the compounds was determined in human peripheral blood mononuclear (PBM) cells as described previously (Schinazi […]., Cannon D., Mathis R., Lloyd R. M. Jr., […]., St. Clair M., Wilson J., Furman P. A., Painter G., Choi […]. Antimicrob. Agents Chemother. 1992, 36, 2423; Schinazi […]., Cannon D., Xie […]., Smith G., Hahn E. Antimicrob. Agents Chemother. 1990, 34, 1061). […]
Metric: EC90 (µM)
Record the value in µM, omitting the unit from your answer.

Please review the following examples before continuing.
| Smiles data | Endpoint unit | EC90 |
| --- | --- | --- |
| CC(C)(C)c1ccc(C(=O)Nc2nc(=O)n([C@H]3CC[C@@H](CO)O3)cc2F)cc1 | µM | 0.088 |
| Cc1ccccc1C(=O)Nc1nc(=O)n([C@H]2CC[C@@H](CO)O2)cc1F | µM | 1.2 |
| CCCCc1ccc(C(=O)Nc2nc(=O)n([C@H]3CC[C@@H](CO)O3)cc2F)cc1 | µM | 0.31 |
| O=C(Nc1nc(=O)n([C@H]2CC[C@@H](CO)O2)cc1F)c1ccccc1[N+](=O)[O-] | µM | 1.5 |
| O=C(Nc1nc(=O)n([C@H]2CC[C@@H](CO)O2)cc1F)c1ccccc1 | µM | 1.29 |

Measured EC90, O=C(Nc1nc(=O)n([C@H]2CC[C@@H](CO)O2)cc1F)c1cccnc1 : 0.17

Measured EC90, COc1ccc(C(=O)Nc2nc(=O)n([C@H]3CC[C@@H](CO)O3)cc2F)cc1 : 8.31

Measured EC90, O=C(Nc1nc(=O)n([C@H]2CC[C@@H](CO)O2)cc1F)c1ccco1 : 1.5

Measured EC90, O=C(Nc1nc(=O)n([C@H]2CC[C@@H](CO)O2)cc1F)c1cccc([N+](=O)[O-])c1 : 1.6

Measured EC90, CCCC(=O)Nc1nc(=O)n([C@H]2CC[C@@H](CO)O2)cc1F : 1.6
